The measured values listed here are drawn from patent EP0181109B1.

Test system: mice falling off the inverted screen
Assay: Mouse Activity and Screen Test Procedure (MAST): screen test (ST)
Assay type: in vivo, Swiss-Webster male mice
Settings: 100 mg/kg intraperitoneally, one hour postinjection; percent of mice falling off the screen
Class satisfied: Screen Test Failure at least 40%. Class not satisfied: Screen Test Failure below 40%.

>>> df
                                   compound  classification
0  COc1cc(OC)c2c(c1)OC(C)(C)CC2Nc1ncnc2c1ncn2[C@@H]1O[C@H](CO)[C@@H](O)[C@H]1O (stereo partly shown)   not satisfied

API: above_or_equal(metric=Screen Test Failure, cutoff=40%) for item OC[C@H]1O[C@@H](n2cnc3c(NC4COc5c(Cl)cccc5C4)ncnc32)[C@H](O)[C@@H]1O (stereo partly shown)
satisfied

Determine whether measured Screen Test Failure meets or exceeds 40% for C[C@H]1Oc2ccccc2C[C@@H]1Nc1ncnc2c1ncn2[C@@H]1O[C@H](CO)[C@@H](O)[C@H]1O (relative stereo)
not satisfied

For this compound, is measured Screen Test Failure 40% or higher? Cc1ccc2c(c1C)OCC(Nc1ncnc3c1ncn3[C@@H]1O[C@H](CO)[C@@H](O)[C@H]1O)C2 (stereo partly shown)
satisfied

State whether the measured Screen Test Failure reaches 40%, counting equality as reaching it, for OC[C@H]1O[C@@H](n2cnc3c(NC4CSc5ccccc5C4)ncnc32)[C@H](O)[C@@H]1O (stereo partly shown)
satisfied

Can CC(C)(C)c1ccc2c(c1)OCC(Nc1ncnc3c1ncn3[C@@H]1O[C@H](CO)[C@@H](O)[C@H]1O)C2 (stereo partly shown) be said to have Screen Test Failure at or above 40%?
not satisfied

Kindly determine if Screen Test Failure recorded for Cc1ccc2c(c1C)OC(C)C(Nc1ncnc3c1ncn3[C@@H]1O[C@H](CO)[C@@H](O)[C@H]1O)C2 (stereo partly shown) is above or exactly 40%.
satisfied

###

Tested on: mice falling off the inverted screen
Experiment: Mouse Activity and Screen Test Procedure (MAST): screen test (ST)
Assay type: in vivo, Swiss-Webster male mice
Conditions: 10 mg/kg intraperitoneally, one hour postinjection; percent of mice falling off the screen
Output criterion met for Screen Test Failure not less than 10%; output criterion not met otherwise.

Reference set, count: 5
Compound	Classification
Cc1ccc2c(c1C)OC(C)C(Nc1ncnc3c1ncn3[C@@H]1O[C@H](CO)[C@@H](O)[C@H]1O)C2 (some centres unmarked)	criterion met
C[C@H]1Oc2ccccc2C[C@@H]1Nc1ncnc2c1ncn2[C@@H]1O[C@H](CO)[C@@H](O)[C@H]1O (relative stereo)	criterion not met
COc1ccc2c(c1)OCC(Nc1ncnc3c1ncn3[C@@H]1O[C@H](CO)[C@@H](O)[C@H]1O)C2 (some centres unmarked)	criterion met
OC[C@H]1O[C@@H](n2cnc3c(NC4CCSc5ccccc54)ncnc32)[C@H](O)[C@@H]1O (some centres unmarked)	criterion met
Cc1cc2c(cc1C)OCC(Nc1ncnc3c1ncn3[C@@H]1O[C@H](CO)[C@@H](O)[C@H]1O)C2 (some centres unmarked)	criterion met

// switching to the query compound
Kindly determine if Screen Test Failure recorded for OC[C@H]1O[C@@H](n2cnc3c(NC4CSc5ccccc5C4)ncnc32)[C@H](O)[C@@H]1O (some centres unmarked) is above or exactly 10%.
criterion met

###

Target: adenosine A1 receptor (Rattus norvegicus, UniProt P25099)
Construct: Whole brain minus cerebellum and brainstem from male Long Evans rats (150-200 g) was homogenized
Sequence (P25099 1-326): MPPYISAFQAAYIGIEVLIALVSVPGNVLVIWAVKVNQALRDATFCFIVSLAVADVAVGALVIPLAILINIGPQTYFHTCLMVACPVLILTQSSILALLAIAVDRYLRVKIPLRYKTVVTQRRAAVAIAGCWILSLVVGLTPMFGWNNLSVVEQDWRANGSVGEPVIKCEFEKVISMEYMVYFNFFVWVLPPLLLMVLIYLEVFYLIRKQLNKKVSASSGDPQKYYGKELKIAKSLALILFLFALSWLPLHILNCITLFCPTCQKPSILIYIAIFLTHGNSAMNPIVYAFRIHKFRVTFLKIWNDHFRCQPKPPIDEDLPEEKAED
Experiment: Adenosine Receptor Binding - A1 Receptor Affinity (RBA 1), [3H]-CHA displacement
Details: rat whole brain membranes, 1.0 nM [3H]-CHA, one hour at 25°C
Test Readout: pIC50
Friendly reminder that pIC50 comes from taking -log10 of the concentration in mol/L.

Examples with answers:
In [3]: df
Out[3]:
                                   molecule  test_readout  obs_value
0  COc1cc(OC)c2c(c1)OC(C)(C)CC2Nc1ncnc2c1ncn2[C@@H]1O[C@H](CO)[C@@H](O)[C@H]1O (some centres unmarked) [Example 14]         pIC50       5.31
1  CC1Oc2ccccc2CC1Nc1ncnc2c1ncn2C1OC(CO)C(O)C1O (centres unmarked) [Example 7]         pIC50       8.11

The reported pIC50 of the molecule COc1ccc2c(c1)CC(Nc1ncnc3c1ncn3[C@@H]1O[C@H](CO)[C@@H](O)[C@H]1O)CO2 (some centres unmarked) [Example 6] was 8.31

Notebook: Cc1ccc2c(c1C)OC(C)C(Nc1ncnc3c1ncn3[C@@H]1O[C@H](CO)[C@@H](O)[C@H]1O)C2 (some centres unmarked) [Example 11] , pIC50 read as 7.49

Record summary for Cc1cc2c(cc1C)OCC(Nc1ncnc3c1ncn3[C@@H]1O[C@H](CO)[C@@H](O)[C@H]1O)C2 (some centres unmarked) [Example 9] : reported pIC50 = 8.09
